target-system: T1, EsCas13d, nuclease-dead (Eubacterium siraeum, UniProt B0MS50, R295A;H300A;R849A;H854A)
T1 sequence: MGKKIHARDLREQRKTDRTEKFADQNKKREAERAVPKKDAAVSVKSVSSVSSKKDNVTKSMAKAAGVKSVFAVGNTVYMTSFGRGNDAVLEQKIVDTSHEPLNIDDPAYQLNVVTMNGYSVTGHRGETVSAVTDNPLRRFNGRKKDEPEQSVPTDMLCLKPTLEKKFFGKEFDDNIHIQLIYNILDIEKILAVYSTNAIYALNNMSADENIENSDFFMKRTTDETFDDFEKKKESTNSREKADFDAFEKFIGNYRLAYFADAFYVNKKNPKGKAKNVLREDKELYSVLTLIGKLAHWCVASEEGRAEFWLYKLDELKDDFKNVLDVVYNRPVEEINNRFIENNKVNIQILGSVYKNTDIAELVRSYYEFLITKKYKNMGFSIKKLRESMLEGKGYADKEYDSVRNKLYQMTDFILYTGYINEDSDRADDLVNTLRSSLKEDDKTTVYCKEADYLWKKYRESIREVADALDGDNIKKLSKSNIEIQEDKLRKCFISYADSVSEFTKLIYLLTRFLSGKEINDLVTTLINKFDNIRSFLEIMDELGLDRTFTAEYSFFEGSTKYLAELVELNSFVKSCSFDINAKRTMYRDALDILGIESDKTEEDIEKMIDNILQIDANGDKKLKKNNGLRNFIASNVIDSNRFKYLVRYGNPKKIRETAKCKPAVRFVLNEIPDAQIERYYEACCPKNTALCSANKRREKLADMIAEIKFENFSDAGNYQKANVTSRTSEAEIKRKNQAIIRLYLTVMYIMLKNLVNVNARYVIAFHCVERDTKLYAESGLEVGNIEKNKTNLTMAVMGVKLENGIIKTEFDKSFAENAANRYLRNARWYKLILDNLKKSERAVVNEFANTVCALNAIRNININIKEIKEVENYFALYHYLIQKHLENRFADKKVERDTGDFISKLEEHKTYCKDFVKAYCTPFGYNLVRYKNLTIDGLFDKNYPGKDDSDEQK
experiment-description: crRNA (strand 1, pre-loaded); Mg2+; 40 mM Tris-HCl pH 7.5, 150 mM NaCl, 6 mM MgCl2, 1 mM DTT, 0.1% Tween-20, 0.2 mg/ml BSA; 25 C; 10 min per concentration, then washed
particulars: tags: His6-TwinStrep-SUMO cleaved; N-terminal SNAP kept (SNAP-Surface 488); label: 3' end held by stalled T7 RNA polymerase
pKd: −log10 of the molar value.
assay-metric: pKd

[[record]]
binder = "target 1 MT 5'PFS GAG 3'PFS UCC (mixed) RNA 1: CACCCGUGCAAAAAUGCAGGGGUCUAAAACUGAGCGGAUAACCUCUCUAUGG RNA 2: GGGAAUGGAUCCACAUCUACGAAUUCGAGCCAUAGAGAGGUUAUCCGCUCAUCCAGAUCGGAAGAGCACACGU"
observed = 7.26

[[record]]
binder = "target 1 MT 5'PFS GAA 3'PFS CUU (mixed) RNA 1: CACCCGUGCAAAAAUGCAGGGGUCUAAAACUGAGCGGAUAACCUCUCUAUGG RNA 2: GGGAAUGGAUCCACAUCUACGAAUUCGAACCAUAGAGAGGUUAUCCGCUCACUUAGAUCGGAAGAGCACACGU"
observed = 7.73

[[record]]
binder = "target 3 del4 (mixed) RNA 1: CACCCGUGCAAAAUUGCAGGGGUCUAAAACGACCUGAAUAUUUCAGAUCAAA RNA 2: GGGAAUGGAUCCACAUCUACGAAUUCGUUUUUGAUCUGAAAUAUUCAGUCUGCAGAUCGGAAGAGCACACGU"
observed = 7.63

[[record]]
binder = "target 2 MT 5'PFS UCG 3'PFS UAG (mixed) RNA 1: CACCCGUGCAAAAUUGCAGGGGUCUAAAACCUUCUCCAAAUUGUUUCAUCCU RNA 2: GGGAAUGGAUCCACAUCUACGAAUUCUCGAGGAUGAAACAAUUUGGAGAAGUAGAGAUCGGAAGAGCACACGU"
observed = 7.57

